Values from patent US7030143B2

tested on: KK-A^y mice; experiment: Effects on carbohydrate and lipid metabolism in KK-A^y mouse; type: in vivo; conditions: plasma insulin level, oral, 4 days, dose 1 mg/kg
Would you mind telling me the reported Percent change of each parameter compared to control group (%): Ins of each entry?
Give a bare numeral; the unit % is implied.

Q) Fill in the recorded Percent change of each parameter compared to control group (%): Ins for this compound, with KK-A^y mice as test system: Cc1oc(-c2ccc(C(F)(F)F)cc2)nc1CCCCC1COC(C)(C(=O)O)OC1 (centres unmarked)
A) −44

Q) What do you have for Cc1oc(-c2ccc(Cl)cc2)nc1CCCCCCOC(C)(C)C(=O)O ?
A) −20

Q) Also Cc1oc(-c2ccccc2)nc1CCCCC1COC(C)(C(=O)O)OC1 (centres unmarked) ?
A) −36

Q) Same question, Cc1ccc(-c2nc(Cc3cccc(CC4COC(C)(C(=O)O)OC4)c3)c(C)o2)cc1 (centres unmarked) this time
A) −21

Q) Please do the same for CC1(C(=O)O)OCC(CCCCc2coc(-c3ccccc3)n2)CO1 (centres unmarked) as well.
A) −67

Q) What do we get for Cc1oc(-c2ccccc2)nc1C/C=C/CCCOC(C)(C)C(=O)O ?
A) −14

Q) Item: Cc1oc(-c2ccccc2)nc1CC#CCCCOC(C)(C)C(=O)O
A) −39

Q) Param item: Cc1ccc(-c2nc(CCCCC3COC(C)(C(=O)O)OC3)c(C)o2)cc1F (centres unmarked)
A) −20

====

Would you kindly list Percent change of each parameter compared to control group (%): TG for each of these compounds?
tested on: KK-A^y mice; experiment: Effects on carbohydrate and lipid metabolism in KK-A^y mouse; assay type: in vivo; settings: plasma triglyceride level, oral, 4 days, dose 1 mg/kg

Q) I am curious: what Percent change of each parameter compared to control group (%): TG value has been reported for Cc1ccc(-c2nc(Cc3cccc(CC4COC(C)(C(=O)O)OC4)c3)c(C)o2)cc1 (centres unmarked) ?
A) −62%

Q) Follow-up entry: Cc1oc(-c2ccc(Cl)cc2)nc1CCCCCCOC(C)(C)C(=O)O
A) −56%

Q) Again, but for Cc1oc(-c2ccccc2)nc1CC#CCCCOC(C)(C)C(=O)O
A) −50%

Q) Again, but for Cc1oc(-c2ccccc2)nc1C/C=C/CCCOC(C)(C)C(=O)O
A) −72%

Q) Would you kindly repeat that for Cc1oc(-c2ccccc2)nc1CCCCC1COC(C)(C(=O)O)OC1 (centres unmarked) ?
A) −46%

Q) Okay, and CC1(C(=O)O)OCC(CCCCc2coc(-c3ccccc3)n2)CO1 (centres unmarked) ?
A) −29%

Q) Proceed to Cc1oc(-c2ccc(C(F)(F)F)cc2)nc1CCCCC1COC(C)(C(=O)O)OC1 (centres unmarked)
A) −31%

Q) Proceed to Cc1ccc(-c2nc(CCCCC3COC(C)(C(=O)O)OC3)c(C)o2)cc1F (centres unmarked)
A) −53%

====

tested on: KK-A^y mice; experiment: Effects on carbohydrate and lipid metabolism in KK-A^y mouse; type: in vivo; settings: plasma glucose level, oral, 4 days, dose 1 mg/kg
REPORTED PROPERTY: Percent change of each parameter compared to control group (%): BG
Give the number; % is assumed, so skip it.

Q) Percent change of each parameter compared to control group (%): BG lookup needed for Cc1oc(-c2ccc(C(F)(F)F)cc2)nc1CCCCC1COC(C)(C(=O)O)OC1 (centres unmarked) , thanks.
A) −15

Q) Try Cc1oc(-c2ccccc2)nc1CC#CCCCOC(C)(C)C(=O)O next.
A) −21

Q) Again, but for Cc1ccc(-c2nc(CCCCC3COC(C)(C(=O)O)OC3)c(C)o2)cc1F (centres unmarked)
A) −12

Q) Now this one: Cc1oc(-c2ccc(Cl)cc2)nc1CCCCCCOC(C)(C)C(=O)O
A) −14

Q) And then Cc1ccc(-c2nc(Cc3cccc(CC4COC(C)(C(=O)O)OC4)c3)c(C)o2)cc1 (centres unmarked) , what is it?
A) −8

Q) Field entry: Cc1oc(-c2ccccc2)nc1CCCCC1COC(C)(C(=O)O)OC1 (centres unmarked)
A) −12

Q) Another compound to look at: CC1(C(=O)O)OCC(CCCCc2coc(-c3ccccc3)n2)CO1 (centres unmarked)
A) −22

Q) What do you have for Cc1oc(-c2ccccc2)nc1C/C=C/CCCOC(C)(C)C(=O)O ?
A) −24

====

For each entry below, report its melting point value.

Q) Reported melting point, compound CCc1oc(-c2ccccc2)nc1CCCCCCOC(C)(C)C(=O)O : ____
A) 88.5 to 89 °C

Q) Here is the next compound: CC(C)(OCCCCCCCc1csc(-c2ccccc2)n1)C(=O)O
A) 71 to 72 °C

Q) Now the same for Cc1ccc(-c2nc(CCCCCCOC(C)(C)C#N)c(C)o2)cc1
A) 36 °C

Q) Request: Cc1oc(-c2ccncc2)nc1CCCCCCOC(C)(C)C(=O)O
A) 91 to 93 °C

Q) And the next one, Cc1oc(-c2ccc(F)cc2)nc1CCCCCCOC(C)(C)C(=O)O ?
A) 64 to 67 °C

Q) Let us now turn to CC(C)(OCCCCCCCc1coc(-c2ccccc2)n1)C(=O)O
A) 72 to 75 °C

Q) Another: CC(C)(OCCCCCCCCc1coc(-c2ccccc2)n1)C(=O)O
A) 59 to 61 °C

Q) What do you have for CC(C)(OCCCCCCc1coc(-c2ccccc2)n1)C(=O)O ?
A) 75 to 77 °C

Q) // repeat for Cc1oc(-c2ccccc2)nc1CCCCCCCOC(C)(C)C(=O)O and report
A) 70 to 71 °C

====

system: KK-A^y mice; test: Effects on carbohydrate and lipid metabolism in KK-A^y mouse; type: in vivo; settings: serum HDL-C level, oral, 4 days, dose 1 mg/kg
For each of the compounds below, state its Percent change of each parameter compared to control group (%): HDL-C.
Form entry: value (%) — number only.

Q) What measured Percent change of each parameter compared to control group (%): HDL-C goes with Cc1ccc(-c2nc(CCCCC3COC(C)(C(=O)O)OC3)c(C)o2)cc1F (stereo not drawn) ?
A) 21

Q) Ok, now Cc1oc(-c2ccc(Cl)cc2)nc1CCCCCCOC(C)(C)C(=O)O
A) 36

Q) Same lookup for Cc1oc(-c2ccccc2)nc1CCCCC1COC(C)(C(=O)O)OC1 (stereo not drawn) , please.
A) 36

====

tested on: KK-A^y mice; experiment: Effects on carbohydrate and lipid metabolism in KK-A^y mouse; format: in vivo; conditions: plasma insulin level, oral, 4 days, dose 3 mg/kg
Output TRUE for Percent change of each parameter compared to control group (%): Ins not less than -30%; output FALSE otherwise.

Q) API: above_or_equal(metric=Percent change of each parameter compared to control group (%): Ins, cutoff=-30%) for item Cc1ccc(-c2nc(CCCCC3COC(C)(C(=O)O)OC3)c(C)s2)cc1 (stereo not shown)
A) TRUE

Q) Subsequent entry: COc1ccc(-c2nc(CCCCC3COC(C)(C(=O)O)OC3)c(C)o2)cc1 (stereo not shown)
A) FALSE

Q) Entry CCC1(C(=O)O)OCC(CCCCc2nc(-c3ccccc3)oc2C)CO1 (stereo not shown) please
A) TRUE

Q) // same read-out, input: Cc1ccc(-c2nc(CCCCC3COC(C)(C(=O)O)OC3)c(C)o2)cc1C (stereo not shown)
A) FALSE

Q) // next record Cc1ccc(-c2nc(CCCCC3COC(C)(C(=O)O)OC3)c(C)o2)cc1 (stereo not shown)
A) TRUE

Q) Follow-up item: Cc1cccc(-c2nc(CCCCC3COC(C)(C(=O)O)OC3)c(C)o2)c1 (stereo not shown)
A) FALSE

Q) Same for Cc1oc(-c2ccc(C(C)(C)C)cc2)nc1CCCCC1COC(C)(C(=O)O)OC1 (stereo not shown)
A) TRUE

Q) Also Cc1oc(-c2ccccc2)nc1/C=C/CCC1COC(C)(C(=O)O)OC1 (stereo not shown) ?
A) FALSE

Q) Same for Cc1ccc(-c2nc(CCCCCCOC(C)(C)C(=O)O)c(C)o2)cc1
A) TRUE

Q) # iterate: Cc1oc(-c2cccs2)nc1CCCCC1COC(C)(C(=O)O)OC1 (stereo not shown)
A) TRUE

====

test system: KK-A^y mice; assay: Effects on carbohydrate and lipid metabolism in KK-A^y mouse; assay type: in vivo; details: sum of VLDL-C and LDL-C level in serum, oral, 4 days, dose 3 mg/kg
Answer each item with its documented Percent change of each parameter compared to control group (%): (V)LDL-C.
Don't forget the unit after the number, please.

Q) // lookup Percent change of each parameter compared to control group (%): (V)LDL-C for COc1ccc(-c2nc(CCCCC3COC(C)(C(=O)O)OC3)c(C)o2)cc1 (stereo not shown)
A) −58%

Q) Same lookup for Cc1oc(-c2ccc(C(C)(C)C)cc2)nc1CCCCC1COC(C)(C(=O)O)OC1 (stereo not shown) , please.
A) −20%

Q) Same again, this time with CCC1(C(=O)O)OCC(CCCCc2nc(-c3ccccc3)oc2C)CO1 (stereo not shown)
A) −26%

Q) Now try Cc1oc(-c2ccccc2)nc1/C=C/CCC1COC(C)(C(=O)O)OC1 (stereo not shown) .
A) −49%

Q) And then Cc1ccc(-c2nc(CCCCCCOC(C)(C)C(=O)O)c(C)o2)cc1 , what is it?
A) −54%

Q) Same thing, different compound: Cc1ccc(-c2nc(CCCCC3COC(C)(C(=O)O)OC3)c(C)s2)cc1 (stereo not shown)
A) −33%

Q) What do you get for Cc1ccc(-c2nc(CCCCC3COC(C)(C(=O)O)OC3)c(C)o2)cc1C (stereo not shown) ?
A) −90%

Q) Note, next up: Cc1ccc(-c2nc(CCCCC3COC(C)(C(=O)O)OC3)c(C)o2)cc1 (stereo not shown)
A) −89%

Q) Cc1cccc(-c2nc(CCCCC3COC(C)(C(=O)O)OC3)c(C)o2)c1 (stereo not shown) ?
A) −90%

Q) Cc1oc(-c2cccs2)nc1CCCCC1COC(C)(C(=O)O)OC1 (stereo not shown) ?
A) −50%
